Give log10(IC50) for every item shown.
target: EGFR (Homo sapiens, UniProt P00533); construct: The intracellular portion of EGFR started at nucleotide 2189 (corresponding to amino acid 667) and ended at the termination codon; assay: EGFR Kinase Assay; conditions: GST-EGFR, ATP 5 μM
Sequence (P00533 669-1210 limits assumed): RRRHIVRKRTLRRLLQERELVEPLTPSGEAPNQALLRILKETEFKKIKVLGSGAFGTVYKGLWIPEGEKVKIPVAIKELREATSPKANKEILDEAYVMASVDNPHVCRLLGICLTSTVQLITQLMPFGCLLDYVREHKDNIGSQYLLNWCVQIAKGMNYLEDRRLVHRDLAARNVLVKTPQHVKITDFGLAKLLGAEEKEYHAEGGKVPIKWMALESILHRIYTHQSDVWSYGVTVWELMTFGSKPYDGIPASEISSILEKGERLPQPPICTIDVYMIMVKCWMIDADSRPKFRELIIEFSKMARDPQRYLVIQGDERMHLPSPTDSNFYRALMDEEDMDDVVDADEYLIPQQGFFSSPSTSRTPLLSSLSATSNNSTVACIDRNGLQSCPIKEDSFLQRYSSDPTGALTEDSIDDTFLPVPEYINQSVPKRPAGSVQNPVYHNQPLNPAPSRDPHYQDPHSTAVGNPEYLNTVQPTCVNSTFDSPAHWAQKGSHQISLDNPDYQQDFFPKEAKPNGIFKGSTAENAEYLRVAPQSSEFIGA
The common logarithm of IC50 in nM is what is listed.

Problem: Answer with reported log10(IC50) of COc1cc(NC(=O)c2sc3ncnc4c3c2NC(=O)N4c2ccc(OCc3cccs3)c(Cl)c2)ccc1CN1CCOCC1
Result: 1.52

Go through the items and report each one's log10(IC50).
1. COc1cc(NC(=O)c2sc3ncnc4c3c2NC(=O)N4c2ccc(F)c(Cl)c2)ccc1OCCCN1CCCCC1
2. COc1cc(NC(=O)c2sc3ncnc4c3c2NC(=O)N4c2ccc(Oc3ccccc3)cc2)ccc1CN1CCCCC1
3. O=C(Nc1ccc(CN2CCOCC2)c(Cl)c1)c1sc2ncnc3c2c1NC(=O)N3c1ccc(Oc2ccccc2)cc1
4. COc1ccc(N2C(=O)Nc3c(C(=O)Nc4ccc(CN5CCCCC5)cc4)sc4ncnc2c34)c(F)c1
5. CN1CCN(Cc2ccc(NC(=O)c3sc4ncnc5c4c3NC(=O)N5c3ccc(Br)cc3F)cc2)CC1
6. COc1cc(NC(=O)c2sc3ncnc4c3c2NC(=O)N4c2ccc(Oc3ccccc3)cc2)ccc1OCCN1CCCCC1
7. O=C1Nc2c(-c3ccccc3)sc3ncnc(c23)N1c1ccc(F)c(Cl)c1

Result:
1: 1.43; 2: 1.34; 3: 1.93; 4: 2.72; 5: 2.52; 6: 1.18; 7: 2.73

Origin of values: patent US7579356B2
